Overview of recorded Population Hoechst High Intensity Objects (%) for various compounds
system: HEK-293T; experiment: Multiplex assay against HEK293T; type: toxicity, cell-based; conditions: human, 12 h, 10 µM, compound concentration 10 uM, replicate 2
Hi, when you answer, please include the unit after the number. Thanks!

Below: 5 compounds and their reported Population Hoechst High Intensity Objects (%).
>  <compound>
CC(C)COc1ccc(CNC(=O)N(Cc2ccc(F)cc2)C2CCN(C)CC2)cc1 [PIMAVANSERIN]

>  <endpointResult>
25%

$$$$
>  <compound>
Br.CS(=O)(=O)Nc1c(O)ccc2c1CCCC2C1=NCCN1 (stereo not given)

>  <endpointResult>
14%

$$$$
>  <compound>
CN[C@@H](C)C(=O)N[C@H](C(=O)N1CCC[C@H]1C(=O)Nc1snnc1-c1ccccc1)C1CCCCC1 [GDC-0152]

>  <endpointResult>
20%

$$$$
>  <compound>
Cc1cnc(-c2cc(N3CCN(C(=O)CCS(C)(=O)=O)CC3)ncc2Cl)c(C)c1

>  <endpointResult>
7%

$$$$
>  <compound>
Cc1onc(-c2ccccc2Cl)c1C(=O)N(C)c1ccc(Cl)cc1

>  <endpointResult>
6%

$$$$

Query: Quick one: Population Hoechst High Intensity Objects (%) of `O=C(CCCc1ccccc1)Nc1nc2ccccc2c(=O)s1` ?
Result: 27%

Query: Requested read-out: Population Hoechst High Intensity Objects (%). Entry: `O=C1[C@H](Cc2ccc(O)cc2)N2C(=O)CCN(C(=O)NCc3ccccc3)[C@H]2CN1Cc1cccc2ccccc12`
Result: 14%

Query: Name the recorded Population Hoechst High Intensity Objects (%) for COC[C@@H](c1ccc(C(F)(F)F)cc1)N1CCN(C2(C)CCN(C(=O)c3c(C)ncnc3C)CC2)C[C@@H]1C.O=C(O)/C=C\C(=O)O [VICRIVIROC MALEATE] .
Result: 16%

Query: Look up Population Hoechst High Intensity Objects (%): `N#Cc1cc(F)cc(-c2nc(-c3ccc(F)cn3)no2)c1`
Result: 10%

Query: Looking for the measured Population Hoechst High Intensity Objects (%) of `C[C@H](N)COC(=O)[C@@H](CCCCN)NC(=O)Cc1c(-c2ccc3ccccc3c2)[nH]c2c1ccc1ccccc12` , can you help?
Result: 7%

Query: Return reported Population Hoechst High Intensity Objects (%); argument: CC(=O)Nc1cccc2c1c(Sc1ccc(Cl)cc1)c(C)n2CC(=O)O [AZD1981]
Result: 15%

Query: Given the compound O=C(NCCN1CCC(n2c(=O)[nH]c3cc(Cl)ccc32)CC1)c1ccc(F)cc1 [HALOPEMIDE] , what is its reported Population Hoechst High Intensity Objects (%)?
Result: 13%

Query: Using the record for `CCCOc1ccc2[nH]cc(C3=CCNCC3)c2n1.Cl` , report its Population Hoechst High Intensity Objects (%).
Result: 4%

Query: Using the record for CCCCCC(O)/C=C/[C@H]1C(=O)CC(O)C1C/C=C\CCCC(=O)O (stereo not given in full) , report its Population Hoechst High Intensity Objects (%).
Result: 7%

Query: What measured Population Hoechst High Intensity Objects (%) goes with Cc1c(CC(=O)O)c2cccnc2n1Cc1ccc(S(C)(=O)=O)cc1C(F)(F)F [FEVIPIPRANT] ?
Result: 10%
